- Test system: IGF-1R Ba/F3 (Homo sapiens, UniProt P08069)
- Construct: fused on or other part: TEL- (or BCR-) IGF-1R in Ba/F3: the kinase part holds the site
- Sequence (P08069 999-1274 limits assumed): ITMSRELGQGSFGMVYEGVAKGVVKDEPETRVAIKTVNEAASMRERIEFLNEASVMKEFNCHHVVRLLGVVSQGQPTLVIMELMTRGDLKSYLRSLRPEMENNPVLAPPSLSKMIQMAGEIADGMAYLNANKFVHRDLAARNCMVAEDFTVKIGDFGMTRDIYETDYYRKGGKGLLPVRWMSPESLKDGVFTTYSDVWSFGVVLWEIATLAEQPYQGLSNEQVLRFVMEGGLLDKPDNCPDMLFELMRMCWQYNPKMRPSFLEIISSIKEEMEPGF
- Run description: Ba/F3 Cell Viability Inhibition Assay (IGF-1R Ba/F3)
- Measurement conditions: Tel-TK transformed Ba/F3 cells, 48 hours, Britelite luminescence
Measured IC50 of individual entries
The reply should contain only the number, in nM.

Please review the entries below; each comes with its answer.
INSERT INTO measurements (record_smiles, test_system, metric, unit_string, numeric_value) VALUES
  ('Cc1cc(Nc2nc(Nc3cc(C)c(C4CCN(Cc5noc(C(C)C)n5)CC4)cc3C)ncc2Cl)n[nH]1', 'IGF-1R Ba/F3 (Homo sapiens, UniProt P08069)', 'IC50', 'nM', 25),
  ('Cc1cc(Nc2nc(Nc3cc(C)c(C4CCN([C@H](C)C(N)=O)CC4)cc3F)ncc2Cl)n[nH]1', 'IGF-1R Ba/F3 (Homo sapiens, UniProt P08069)', 'IC50', 'nM', 38);

Provide IC50, tested on IGF-1R Ba/F3 (Homo sapiens, UniProt P08069), for `Cc1cc(Nc2nc(Nc3cc(C)c(C4CCN(S(=O)(=O)c5cccnc5)CC4)cc3F)ncc2Cl)n[nH]1` . 76

Provide IC50, system IGF-1R Ba/F3 (Homo sapiens, UniProt P08069), entry `Cc1cc(Nc2nc(Nc3cc(C)c(C4CCN(CCC(N)=O)CC4)cc3F)ncc2Cl)n[nH]1` 140

====

- Test system: IGF-1R Ba/F3 (Homo sapiens, UniProt P08069)
- Construct: fused on or other part: TEL- (or BCR-) IGF-1R in Ba/F3: the kinase part holds the site
- Run description: Ba/F3 Cell Viability Inhibition Assay (IGF-1R Ba/F3)
- Measurement conditions: Tel-TK transformed Ba/F3 cells, 48 hours, Britelite luminescence
// reported IC50 per item
Output spec: scalar in nM, unitless text.

Example compounds with recorded IC50:
INSERT INTO measurements (compound, test_system, unit_string, numeric_value) VALUES
  ('Cc1cc(Nc2nc(Nc3cc(C)c(C4CCN(C(=O)[C@H]5C[C@@H](O)CN5C)CC4)cc3C)ncc2Cl)n[nH]1', 'IGF-1R Ba/F3 (Homo sapiens, UniProt P08069)', 'nM', 48),
  ('Cc1cc(Nc2nc(Nc3cc(C)c(C4CCN(S(C)(=O)=O)CC4)cc3C)ncc2Cl)n[nH]1', 'IGF-1R Ba/F3 (Homo sapiens, UniProt P08069)', 'nM', 2),
  ('Cc1cc(Nc2nc(Nc3cc(C)c(C4CCN(C(=O)N5CCNC5=O)CC4)cc3C)ncc2Cl)n[nH]1', 'IGF-1R Ba/F3 (Homo sapiens, UniProt P08069)', 'nM', 13),
  ('Cc1cc(Nc2nc(Nc3cc(C)c(C4CCN(C(=O)CCN5CCCC5)CC4)cc3C)ncc2Cl)n[nH]1', 'IGF-1R Ba/F3 (Homo sapiens, UniProt P08069)', 'nM', 61),
  ('Cc1cc(Nc2nc(Nc3cc(C(F)(F)F)c(C4CCN(C)CC4)cc3C)ncc2Cl)n[nH]1', 'IGF-1R Ba/F3 (Homo sapiens, UniProt P08069)', 'nM', 26);

Kindly indicate its recorded IC50. Item: `CNC1(C(=O)N2CCC(c3cc(F)c(Nc4ncc(Cl)c(Nc5cc(C)[nH]n5)n4)cc3C)CC2)CCC1` 80

Supply recorded IC50 for `Cc1cc(Nc2nc(Nc3cc(C)c(C4CCN(CC#N)CC4)cc3F)ncc2Cl)n[nH]1` here. 77

Return value of IC50 for input Cc1cc(Nc2nc(Nc3cc(C)c(C4CCN(CC(O)C(F)(F)F)CC4)cc3F)ncc2Cl)n[nH]1 (stereo not drawn) , no commentary. 71

====

Overview of recorded pIC50 for various compounds
- Test system: IGF-1R Ba/F3 (Homo sapiens, UniProt P08069)
- Construct: fused on or other part: TEL- (or BCR-) IGF-1R in Ba/F3: the kinase part holds the site
- Run description: Ba/F3 Cell Viability Inhibition Assay (IGF-1R Ba/F3)
- Measurement conditions: Tel-TK transformed Ba/F3 cells, 48 hours, Britelite luminescence
When answering, recall that pIC50 equals minus log10 of the concentration in mol/L, and write that number alone.

INSERT INTO assay_data (compound, test_system, numeric_value) VALUES
  ('Cc1cc(Nc2nc(Nc3cc(C)c(C4CCN(C(C)C(N)=O)CC4)cc3F)ncc2C(F)(F)F)n[nH]1 (stereo not drawn)', 'IGF-1R Ba/F3 (Homo sapiens, UniProt P08069)', 7.11),
  ('COCC(=O)N1CCC(c2cc(C)c(Nc3ncc(Cl)c(Nc4cc(C)[nH]n4)n3)cc2C)CC1', 'IGF-1R Ba/F3 (Homo sapiens, UniProt P08069)', 8.70),
  ('CC(=O)N1CCC(C(=O)N2CCC(c3cc(F)c(Nc4ncc(Cl)c(Nc5cc(C)[nH]n5)n4)cc3C)CC2)CC1', 'IGF-1R Ba/F3 (Homo sapiens, UniProt P08069)', 7.32),
  ('Cc1cc(Nc2nc(Nc3cc(C)c(C4CCCN(C(=O)C5(N)CC5)C4)cc3C)ncc2Cl)n[nH]1 (stereo not drawn)', 'IGF-1R Ba/F3 (Homo sapiens, UniProt P08069)', 7.02),
  ('Cc1cc(Nc2nc(Nc3cc(C)c(N4CCNCC4=O)cc3C)ncc2Cl)n[nH]1', 'IGF-1R Ba/F3 (Homo sapiens, UniProt P08069)', 5.78),
  ('Cc1cc(Nc2nc(Nc3cc(C)c(C4CCN(CCO)CC4)cc3F)ncc2Cl)n[nH]1', 'IGF-1R Ba/F3 (Homo sapiens, UniProt P08069)', 7.23);

Check the records and state pIC50 for `Cc1cc(Nc2nc(Nc3cc(C)c(C4CCN(C(=O)[C@H]5CCCN5C)CC4)cc3F)ncc2Cl)n[nH]1` 7.68

Give the value of pIC50 reported for the following: `Cc1cc(Nc2nc(Nc3cc(C)c(C4CCN(C(=O)c5c(C)nn(C)c5C)CC4)cc3F)ncc2Cl)n[nH]1` 7.60

Report pIC50 for `Cc1cc(Nc2nc(Nc3cc(C)c(C4CCN(CCc5nc(C(C)C)no5)CC4)cc3C)ncc2Cl)n[nH]1` 7.41

Write down pIC50 measured for item Cc1cc(Nc2nc(Nc3cc(C)c(C4CCN(C)C(C)C4)cc3F)ncc2Cl)n[nH]1 (stereo not drawn) 8.05

====

- Test system: IGF-1R Ba/F3 (Homo sapiens, UniProt P08069)
- Construct: fused on or other part: TEL- (or BCR-) IGF-1R in Ba/F3: the kinase part holds the site
- Run description: Ba/F3 Cell Viability Inhibition Assay (IGF-1R Ba/F3)
- Measurement conditions: Tel-TK transformed Ba/F3 cells, 48 hours, Britelite luminescence
Decide using IC50 alone. Strictly below 100 nM: T. Equal to or above 100 nM: F.

Known results for molecules:
INSERT INTO assay_data (molecule, answer_label) VALUES
  ('COc1cc(Nc2ncc(Cl)c(Nc3cc(C)[nH]n3)n2)c(C)cc1C1CCN(CC(N)=O)CC1', 'T'),
  ('Cc1cc(Nc2nc(Nc3cc(C)c(C4CCN(C5CCS(=O)(=O)CC5)CC4)cc3C)ncc2Cl)n[nH]1', 'F'),
  ('Cc1cc(Nc2nc(Nc3cc(C)c(C4CCN(Cc5ccncc5)CC4)cc3C)ncc2Cl)n[nH]1', 'T'),
  ('Cc1cc(Nc2nc(Nc3cc(C)c(C4CCN(C(=O)[C@@H]5C(O)CCN5C)CC4)cc3F)ncc2Cl)n[nH]1 (stereo in doubt)', 'F');

Please let me know if `Cc1cc(Nc2nc(Nc3cc(C)c(C4CCN(C)CC4)cc3F)ncc2Cl)no1` shows IC50 below 100 nM. T

Lab note: confirm whether the reported IC50 for this molecule is below 100 nM, equality not counting. molecule: `CCc1cc(Nc2ncc(Cl)c(Nc3cc(C)[nH]n3)n2)c(C)cc1C1CCN(CC(N)=O)CC1` T

====

A collection of molecules and their measured IC50
- Test system: IGF-1R Ba/F3 (Homo sapiens, UniProt P08069)
- Construct: fused on or other part: TEL- (or BCR-) IGF-1R in Ba/F3: the kinase part holds the site
- Run description: Ba/F3 Cell Viability Inhibition Assay (IGF-1R Ba/F3)
- Measurement conditions: Tel-TK transformed Ba/F3 cells, 48 hours, Britelite luminescence
Write the answer as a number in nM, unit excluded.

INSERT INTO results (molecule, numeric_value) VALUES
  ('Cc1cc(Nc2nc(Nc3cc(C)c(C4CCN([C@H]5CC[C@@H](O)CC5)CC4)cc3F)ncc2Cl)n[nH]1 [Compound 311]', 21),
  ('Cc1cc(Nc2nc(Nc3cc(C)c(C4CCN(Cc5ccccn5)CC4)cc3C)ncc2Cl)n[nH]1 [Compound 307]', 7),
  ('Cc1cc(Nc2nc(Nc3cc(C)c(C4CCNCC4)cc3C)ncc2C(F)(F)F)n[nH]1 [Compound 257]', 64),
  ('Cc1cc(Nc2nc(Nc3cc(C)c(C4CCN(CCCC(=O)N5CCOCC5)CC4)cc3F)ncc2Cl)n[nH]1 [Compound 246]', 58);

Please report IC50 for the following molecule: CC(=O)NCC(=O)N1CCC(c2cc(F)c(Nc3ncc(Cl)c(Nc4cc(C)[nH]n4)n3)cc2C)CC1 [Compound 107] 57
